test: refractive index (Na D-line) (dimensionless); settings: 293.15 K; 101.33 kPa; Liquid; Standard Abbe refractometry
± gives the expanded uncertainty stated by the source.
Attribute: refractive index
endpoint-name: refractive index

compound="CC(=O)OC(C)C [1-methylethyl ethanoate]" endpoint_name="refractive index" assay_result="1.3751 ± 0.0007"
compound=CCO endpoint_name="refractive index" assay_result="1.3592 ± 0.0007"
compound="CCOC(=O)OCC [diethyl carbonate]" endpoint_name="refractive index" assay_result="1.383 ± 0.0007"
compound="CCCC(=O)OCC [ethyl butanoate]" endpoint_name="refractive index" assay_result="1.3899 ± 0.0007"
